Listed here: items and their measured T/C.
Tested on: P388 leukemia ip, CD2F1 mice, survival T/C
assay.name: NCI In Vivo Anticancer Drug Screen. Data for tumor model P388 Leukemia (intraperitoneal) in CD2F1 (CDF1) mice
experimental.setup: endpoint: median survival time; dose: 400.0 mg/kg/injection; schedule: Q01DX009 (ip); vehicle: other; higher = longer survival
Toxic doses and inconclusive results are not listed.

INSERT INTO assay_data (compound, value_observed) VALUES
  ('COC(=O)Nc1cnc(C=O)c(C)c1-c1ccc(OC)c(OC)c1OCc1ccccc1', '90 % of control'),
  ('CC(=O)OC1OC(CO)C(OCc2ccccc2)C(OCc2ccccc2)C1OC(C)=O (stereo unspecified)', '99 % of control'),
  ('Cc1ccc(N/N=C/C(=O)O)cc1', '116 % of control'),
  ('O=C(Nc1ccc(OCc2ccccc2)cc1)c1cc2c(cc1Br)OCO2', '100 % of control'),
  ('O=[N+]([O-])c1cc2c(cc1C1OCCO1)OCO2', '98 % of control');

Now for the compound whose T/C we want.
Name the recorded T/C of the item NS(=O)(=O)c1cc2c(cc1Cl)NC(CCC(=O)O)=NS2(=O)=O in your answer.
97 % of control
